tested on: E. coli pLC1021 (luc-trpAt trans-translation reporter); construct: pLC1021 luc-trpAt reporter strain; design: species or system Escherichia coli pLC1021; luc-trpAt non-stop luciferase reporter; luminescence rises when trans-translation is inhibited; normalized to KKL-35 and DMSO; conditions: reporter signal, KKL-35 = 100%; rise means trans-translation inhibition; 2 h, 20 µM
Hit rate of the full screen: of about 1,600 compounds, about 20 (1%) showed an effect of 50% or more. What follows is part of a selection rich in strong results, with near analogues and random picks from the rest.
Listing: % activation of selected compounds
The answer is to be given in %; state only the numeric part.

Examples with answers:
Cc1sc2nc(C(C)C)n(C3CCN(C(=O)c4ccncc4)CC3)c(=O)c2c1C; 14
Cc1nn2c(O)cc(C(C)(C)C)nc2c1-c1ccccc1; 17
CN1CCN(c2ccc(NC(=S)NC(=O)c3ccc(-c4cccc(Cl)c4)o3)cc2)CC1; 18

Query string: Query: % activation; subject: `CCOC(=O)COc1ccc(C(=O)Nc2ccc(F)cc2)cc1`
Result string: 0

Query string: Query: % activation; subject: `COc1ccc(CCN=C(S)N2CCN(C/C=C/c3ccccc3)CC2)cc1OC`
Result string: 2

###

system: E. coli pLC1021 (luc-trpAt trans-translation reporter); construct: pLC1021 luc-trpAt reporter strain; design: species or system Escherichia coli pLC1021; luc-trpAt non-stop luciferase reporter; luminescence rises when trans-translation is inhibited; normalized to KKL-35 and DMSO; details: reporter signal, KKL-35 = 100%; rise means trans-translation inhibition; 2 h, 20 µM
Among all 1,600 compounds or so, about 20 (1%) showed an effect of 50% or more. The list comes from a sample in which strong results are over-represented; it also holds close analogues and randomly drawn compounds.
Listing: % activation of selected compounds
The answer is to be given in %; state only the numeric part.

O=C(Nc1nc(-c2ccccn2)cs1)c1ncc(Cl)c(Cl)c1Cl; 10

Query string: Recall the recorded % activation for `c1cn(CCCNc2nncc(-c3ccc(C4CCCCC4)cc3)n2)cn1` with E. coli pLC1021 (luc-trpAt trans-translation reporter) and state it.
Result string: 8

Query string: Recall the recorded % activation for NC1CCc2nc(-c3cccnc3)nc(Nc3ccc(Cl)cc3)c2C1 (centres unmarked) with E. coli pLC1021 (luc-trpAt trans-translation reporter) and state it.
Result string: 119

Query string: Recall the recorded % activation for `FC(F)(F)c1cccc(-n2cc(-c3ccccc3)c3c(NCc4cccnc4)ncnc32)c1` with E. coli pLC1021 (luc-trpAt trans-translation reporter) and state it.
Result string: 0

Query string: Recall the recorded % activation for NC1CCc2nc(-c3ccncc3)nc(Nc3ccc(Cl)cc3)c2C1 (centres unmarked) with E. coli pLC1021 (luc-trpAt trans-translation reporter) and state it.
Result string: 797

Query string: Recall the recorded % activation for `CCCC(=O)NC(=S)Nc1ccc(N2CCN(C(=O)c3cccs3)CC2)c(Cl)c1` with E. coli pLC1021 (luc-trpAt trans-translation reporter) and state it.
Result string: 0

Query string: Recall the recorded % activation for `O=C(COc1cccc(F)c1)Nc1nc(-c2ccccn2)cs1` with E. coli pLC1021 (luc-trpAt trans-translation reporter) and state it.
Result string: 5

Query string: Recall the recorded % activation for `Nc1cccnc1Nc1ccc(Cl)cc1` with E. coli pLC1021 (luc-trpAt trans-translation reporter) and state it.
Result string: 0

Query string: Recall the recorded % activation for NC1CCc2nc(-c3cccnc3)nc(Nc3ccc(C(F)(F)F)cc3)c2C1 (centres unmarked) with E. coli pLC1021 (luc-trpAt trans-translation reporter) and state it.
Result string: 137

Query string: Recall the recorded % activation for `COc1ccc(-c2cncc(-c3cc(N4CCN(CCO)CC4)nc(-c4ccccc4)n3)c2)cc1` with E. coli pLC1021 (luc-trpAt trans-translation reporter) and state it.
Result string: 0

Query string: Recall the recorded % activation for `Cc1ccc(-c2csc(-c3ccncc3)n2)cc1C` with E. coli pLC1021 (luc-trpAt trans-translation reporter) and state it.
Result string: 0

###

Listing: % activation of selected molecules
test system: E. coli pLC1021 (luc-trpAt trans-translation reporter); construct: pLC1021 luc-trpAt reporter strain; set-up: species or system Escherichia coli pLC1021; luc-trpAt non-stop luciferase reporter; luminescence rises when trans-translation is inhibited; normalized to KKL-35 and DMSO; settings: reporter signal, KKL-35 = 100%; rise means trans-translation inhibition; 2 h, 20 µM
Out of some 1,600 compounds screened, about 20 (1%) showed an effect of 50% or more. The full list was thinned out, with strong results kept by preference.
The answer is to be given in %; state only the numeric part.

Examples with answers:
CCOC(=O)Cc1csc(NC(=O)c2c(O)c3ccccc3n(CCC(C)C)c2=O)n1 [KKL-1615]; 75
O=C(Nc1cccc(Cl)c1)Nc1ccccc1OC(F)(F)C(F)F [KKL-0431]; 21
CCCOC(=O)CSc1nnc(-c2cc(OC)c(OC)c(OC)c2)o1 [KKL-1095]; 0
N#Cc1ncn(-c2ccc3nnc(C(F)(F)F)n3n2)n1 [KKL-1886]; 0
O=C(Oc1cccc2cccnc12)C(Cc1ccccc1)N1C(=O)C2C3CCC(C3)C2C1=O (stereo not drawn) [KKL-1364]; 9
Cc1ccc(C2(O)CCN(CCNC(=O)c3oc4ccccc4c3C)CC2)cc1 [KKL-0340]; 1

Query string: Query: % activation; subject: COC(=O)[C@@H]1Cc2c([nH]c3ccccc23)[C@H]2C[C@@H](NC(C)C)C[C@@H](c3cccc(Cl)c3)N21 [KKL-1594]
Result string: 1

Query string: Query: % activation; subject: Cc1cccc(NC(=S)NC(=O)CC23CC4CC(CC(C4)C2)C3)c1 [KKL-1311]
Result string: 0

Query string: Query: % activation; subject: Cc1ccc(NCCC(=O)c2ccc([N+](=O)[O-])cc2)cc1C [KKL-0401]
Result string: 14

###

Listing: % activation of selected compounds
test system: E. coli pLC1021 (luc-trpAt trans-translation reporter); construct: pLC1021 luc-trpAt reporter strain; design: species or system Escherichia coli pLC1021; luc-trpAt non-stop luciferase reporter; luminescence rises when trans-translation is inhibited; normalized to KKL-35 and DMSO; conditions: reporter signal, KKL-35 = 100%; rise means trans-translation inhibition; 2 h, 20 µM
The whole screen tested about 1,600 compounds, of which about 20 (1%) showed an effect of 50% or more. The sample holds strong results, similar compounds and a random draw of the others, so the mix is not that of the screen.
The answer is to be given in %; state only the numeric part.

Examples with answers:
CCCCc1cccc(C(=O)Nc2nnc(S(=O)(=O)CCCC)s2)n1 [KKL-1853]; 6
O=C(CSc1ccccc1)Nc1ccc(-c2nc3ccccc3c(=O)o2)cc1 [KKL-0595]; 1
Cc1ccccc1CN1CC[C@@H]2[C@H](C1)[C@@H](c1ccc(F)cc1)CN2C(=O)C(C)C [KKL-1218]; 2

Query string: Query: % activation; subject: CCOc1ccc(NC(=O)CSc2nc3ccc([N+](=O)[O-])cc3s2)cc1 [KKL-1417]
Result string: 0

Query string: Query: % activation; subject: CC(C)(C)c1cc(NCCCn2ccnc2)n2ncc(-c3ccc(Cl)cc3)c2n1 [KKL-1011]
Result string: 9

Query string: Query: % activation; subject: Cc1ccc2nc(C(F)(F)F)c(C(=O)NCc3cc(Cl)cc(Cl)c3)n2c1 [KKL-1785]
Result string: 16

###

test system: E. coli pLC1021 (luc-trpAt trans-translation reporter); construct: pLC1021 luc-trpAt reporter strain; parameters: species or system Escherichia coli pLC1021; luc-trpAt non-stop luciferase reporter; luminescence rises when trans-translation is inhibited; normalized to KKL-35 and DMSO; conditions: reporter signal, KKL-35 = 100%; rise means trans-translation inhibition; 2 h, 20 µM
The whole screen tested about 1,600 compounds, of which about 20 (1%) showed an effect of 50% or more. Many of the other results were omitted from the sample, so strong results are more common in it than they were.
measured.attribute: % activation (%)
The answer is to be given in %; state only the numeric part.

Query string: Query: % activation; subject: Cc1cc(CN2CCC(O)(c3ccccc3)C2)ccc1N1CCCC1 (centres unmarked)
Result string: 0

Query string: Query: % activation; subject: `CC(C)(C)c1ccc(C(=O)NC(=S)Nc2ccc(C(=O)O)cc2)cc1`
Result string: 0

Query string: Query: % activation; subject: `Cc1nn(-c2ccc(F)cc2)c2nc(O)c(CNCc3ccccc3F)cc12`
Result string: 0

Query string: Query: % activation; subject: CCC1CCCCN1C(=O)COC(=O)c1cc2ccccc2cc1O (centres unmarked)
Result string: 0

Query string: Query: % activation; subject: `CC(=O)NC(=S)NNC(=O)c1ccc(C(C)(C)C)cc1`
Result string: 143
